Recorded GI50 by entry
- Test system: LOX IMVI
- assay_method_text: NCI tumour cell line growth inhibition, 48 h
Activity calls are given as the source filed them. Cut-off read from the data, not from the text of the source: active = GI50 up to about 1.1 µM and inactive = higher.

molecule | GI50
COC(=O)C1CCc2nnc(-c3ccccc3)n21 (stereo not given) | > 100 µM (inactive)
CC(C)=CCC/C(C)=C/CCC1(C)C=Cc2c(c3ccccc3oc2=O)O1 (stereo not given) | 18 µM (inactive)
O=c1ccc2ccc(O)cc2o1 | > 100 µM (inactive)
Oc1ccc2c3c1OC1C(=NN=C4CCC5(O)C6Cc7ccc(O)c8c7C5(CCN6CC5CC5)C4O8)CCC4(O)C(C2)N(CC2CC2)CCC314 (stereo not given) | 20 µM (inactive)
CCN(CC)c1ccc(/N=N/c2ccc(-c3nc4cccn(C)c-4n3)cc2)cc1 | 2.52 µM (inactive)
Cc1cn(CC2(CO)CCC2)c(=O)[nH]c1=O | > 100 µM (inactive)
CCCCCCC(O)CC[C@H]1CCC[C@@H](C)N1 (stereo not given in full) | > 100 µM (inactive)
O[C@@]12Cc3c([nH]c4ccccc34)[C@@H]3Oc4cccc5c4[C@@]31CCN(CC1CC1)[C@@H]2C5 | 18.9 µM (inactive)
O=S1(=O)OCCOS(=O)(=O)C1Cc1ccccc1 | 35.7 µM (inactive)
O=c1[nH]c2nc3ccccc3c(=O)n2/c1=C/c1ccc(Cl)cc1 | 30.4 µM (inactive)

###

- Test system: SK-MEL-28
- assay_method_text: NCI tumour cell line growth inhibition, 48 h
Calls of active or inactive are those of the source. No stated cut-off is given here; in the data, active = GI50 up to about 1.1 µM and inactive = higher.
Each entry below carries its reported GI50.

compound | GI50
Clc1ccc(/C=C/c2nc(Cl)c(-c3ccc(Cl)cc3)c(Cl)n2)cc1 | > 100 µM (inactive)
O=C(c1cc2c(c3ccccc13)NCCN=C2C(F)(F)F)C(F)(F)F | 18.9 µM (inactive)
CCCCCCCCCCCCCCCCP(=O)(O)OP(=O)(O)OCC1OC(n2cnc3c(N)ncnc32)C(O)C1O (stereo not given) | 35.7 µM (inactive)
CC(C)=CCC/C(C)=C/CCC1(C)C=Cc2c(c3ccccc3oc2=O)O1 (stereo not given) | 16.1 µM (inactive)
COC(=O)C(=O)C(C(C)=O)C(=O)NCc1ccc(OC)c(OC)c1 (stereo not given) | > 100 µM (inactive)

###

- System: SF-295
- assay_method_text: NCI tumour cell line growth inhibition, 48 h
Activity calls are given as the source filed them. Cut-off read from the data, not from the text of the source: active = GI50 up to about 1.1 µM and inactive = higher.
Reported GI50 values for a set of compounds

compound | GI50
COC1=C2CC(C)CC(OC)C(O)C(C)/C=C(\C)C(OC(N)=O)C(OC)/C=C\C=C(/C)C(=O)NC(=C(/C=N/C(C)(C)C)C1=O)C2=O (stereo not drawn) | 5.02 µM (inactive)
CC(C)=CCC/C(C)=C/CCC1(C)C=Cc2c(c3ccccc3oc2=O)O1 (stereo not drawn) | 18.8 µM (inactive)
COC(=O)/C(=N/NC(C)(C)C)C(C(=O)C=C(C)C)C(=O)C(=O)Nc1ccc(Cl)cc1C (stereo not drawn) | > 100 µM (inactive)
CC(C)CNP(=O)(NCC(C)C)Oc1ccc(CC(NC(=O)OCc2ccccc2)C(=O)OCc2ccccc2)cc1 (stereo not drawn) | 18.5 µM (inactive)
COC(=O)c1cc2c(cc1CC1Cc3cc4c(cc3C1=O)CCC4)CCC2 (stereo not drawn) | 30.7 µM (inactive)
N#CC(C#N)=C(N)/C(C#N)=C/c1ccc2ccccc2n1 | 21.3 µM (inactive)
CC1CCCOc2ccc(cc2)/C=N\c2ccc(cc2)CCc2ccc(cc2)/N=C\c2ccc(cc2)OCCC1 | > 100 µM (inactive)
Cn1cc(NC(=O)c2cc(NC(=O)CCCCCCCCCCC(=O)Nc3cc(C(=O)Nc4cc(C(=O)NCCC(=N)N)n(C)c4)n(C)c3)cn2C)cc1C(=O)NCCC(=N)N | 50.8 µM (inactive)
